As shown below, each of these compounds has a reported IC50 value.
Target: huBuChE (Homo sapiens, UniProt P06276)
Sequence (P06276 29-602): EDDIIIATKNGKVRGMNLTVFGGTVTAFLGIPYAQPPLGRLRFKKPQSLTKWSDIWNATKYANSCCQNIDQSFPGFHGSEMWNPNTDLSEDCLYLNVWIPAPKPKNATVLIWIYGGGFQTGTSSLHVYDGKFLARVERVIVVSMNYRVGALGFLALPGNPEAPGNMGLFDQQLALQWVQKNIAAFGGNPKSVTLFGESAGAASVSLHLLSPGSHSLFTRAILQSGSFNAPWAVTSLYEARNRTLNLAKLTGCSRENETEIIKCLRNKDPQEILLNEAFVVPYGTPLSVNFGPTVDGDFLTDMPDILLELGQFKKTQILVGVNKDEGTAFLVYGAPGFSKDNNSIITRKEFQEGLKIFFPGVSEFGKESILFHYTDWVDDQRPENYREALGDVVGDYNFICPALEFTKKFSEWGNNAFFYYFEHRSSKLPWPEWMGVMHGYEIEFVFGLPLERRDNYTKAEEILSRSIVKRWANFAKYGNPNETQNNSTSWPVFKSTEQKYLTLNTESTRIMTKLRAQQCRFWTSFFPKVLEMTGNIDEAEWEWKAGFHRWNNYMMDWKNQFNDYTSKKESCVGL
Please give a number only; it is taken to be in nM.

The measured IC50 that COc1cc(CCC(=O)N2CCC(Cc3ccccc3)CC2)ccc1OCCCCN1CCc2ccccc2C1 showed for huBuChE (Homo sapiens, UniProt P06276) is 97

Bench note, huBuChE (Homo sapiens, UniProt P06276): entry COc1cc(CCC(=O)N2CCC(Cc3ccccc3)CC2)ccc1OCCCCN1CCC(Cc2ccccc2)CC1 , its IC50 = 160

Tested on huBuChE (Homo sapiens, UniProt P06276), the item CCN(CCCCCOc1ccc(CCC(=O)N2CCC(Cc3ccccc3)CC2)cc1OC)Cc1ccccc1 [10c] showed IC50 equal to 110

GET /values?item= COc1cc(CCC(=O)N2CCC(Cc3ccccc3)CC2)ccc1OCCCCN1CCC(CCCc2ccccc2)CC1 &system= huBuChE (Homo sapiens, UniProt P06276) returns IC50: 82

###

Biological target: huBuChE (Homo sapiens, UniProt P06276)
Assay: BuChE inhibition, Ellman's assay
Assay type: biochemical
Settings: Selectivity Index, huAChE and huBuChE
QUANTITY_MEASURED: SI

Below, each entry is followed by its recorded SI result.
INSERT INTO measurements (compound, result) VALUES
  ('CCN(CCCCCOc1ccc(CCC(=O)N2CCC(Cc3ccccc3)CC2)cc1OC)Cc1ccccc1 [10c]', 78),
  ('CCN(CCCCOc1ccc(C(=O)N2CCC(Cc3ccccc3)CC2)cc1OC)Cc1ccccc1', 4.5);

Entry COc1cc(CCC(=O)N2CCC(Cc3ccccc3)CC2)ccc1OCCCCN1CCC(CCCc2ccccc2)CC1 , SI reported as 82

COc1cc(CCC(=O)N2CCC(Cc3ccccc3)CC2)ccc1OCCCCN1CCc2ccccc2C1 has a reported SI of 89

###

Target: UniProtKB P81908
Sequence (P81908 whole entry): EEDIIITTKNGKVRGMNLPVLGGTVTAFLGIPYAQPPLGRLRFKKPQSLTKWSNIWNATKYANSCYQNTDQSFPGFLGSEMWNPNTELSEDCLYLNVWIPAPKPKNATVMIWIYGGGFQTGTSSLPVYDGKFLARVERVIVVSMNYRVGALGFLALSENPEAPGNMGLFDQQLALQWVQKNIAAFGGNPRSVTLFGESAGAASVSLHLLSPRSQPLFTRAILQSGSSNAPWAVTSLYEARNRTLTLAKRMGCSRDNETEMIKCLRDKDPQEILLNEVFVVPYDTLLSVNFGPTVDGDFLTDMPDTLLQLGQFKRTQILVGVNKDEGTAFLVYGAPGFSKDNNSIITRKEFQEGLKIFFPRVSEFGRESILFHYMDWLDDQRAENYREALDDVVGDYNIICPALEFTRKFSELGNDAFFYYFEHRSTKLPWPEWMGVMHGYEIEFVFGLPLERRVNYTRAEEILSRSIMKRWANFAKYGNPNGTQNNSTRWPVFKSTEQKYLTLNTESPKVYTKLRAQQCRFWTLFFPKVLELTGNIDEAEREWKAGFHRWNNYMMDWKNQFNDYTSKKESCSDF
Assay: BuChE inhibition, Ellman's assay
Format: biochemical, equine
Conditions: Selectivity Index, eeAChE and eqBuChE
QUANTITY_MEASURED: SI
Field format: numeric only.

// known answers, use as guide
INSERT INTO assay_data (compound, numeric_result) VALUES
  ('COc1cc(CCC(=O)N2CCC(Cc3ccccc3)CC2)ccc1OCCCCN1CCC(Cc2ccccc2)CC1', 18),
  ('COc1cc(CCC(=O)N2CCC(Cc3ccccc3)CC2)ccc1OCCCCN1CCC(c2noc3ccccc23)CC1', 22),
  ('CCN(CC)CCCCOc1ccc(C(=O)N2CCC(Cc3ccccc3)CC2)cc1OC', 1.3),
  ('COc1cc(CCC(=O)N2CCC(Cc3ccccc3)CC2)ccc1OCCCCN1CCc2ccccc2C1', 71),
  ('CCN(CCCOc1ccc(CCC(=O)N2CCC(Cc3ccccc3)CC2)cc1OC)Cc1ccccc1 [10b]', 128);

Just so you know, measured SI for COc1cc(CCC(=O)N2CCC(Cc3ccccc3)CC2)ccc1OCCCCN1CC(C)CC(C)C1 (stereo not drawn) came out at 8.7

Source of measurements: paper PMC12138102
